This section presents variants with their documented abundance fitness values.
B1: KAT8 regulatory NSL complex subunit 2, residues 28 to 91; numbered along this chain, Q9H9L4 (parent)
chain: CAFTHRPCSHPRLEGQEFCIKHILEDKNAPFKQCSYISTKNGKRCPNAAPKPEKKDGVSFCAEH

Variants of: B1
EXPERIMENTAL DETAILS: abundance fitness (aPCA) (normalised: wild type 0, dead -1); higher = more abundant; growth selection in yeast, the domain comes from the species named
MEASUREMENT SETUP: Homo sapiens
MEASURED METRIC: abundance fitness

INSERT INTO results (residue_string, reported) VALUES
  ('CAFTHRQCSHPRLEGQEFCIKHILEDKNAPFKQCSYISTKNGKRCPNAAPKPEKKDGVSFCAEH', -0.072),
  ('CAFTHRPCSHPRLEGQEFCIVHILEDKNAPFKQCSYISTKNGKRCPNAAPKPEKKDGVSFCAEH', -0.117),
  ('CAFTHRPCSHPRLWGQEFCIKHILEDKNAPFKQCSYISTKNGKRCPNAAPKPEKKDGVSFCAEH', -0.396),
  ('CAFTHRPCSHPRLEGQEFCIKHILEDKNAPFKQCSYISTLNGKRCPNAAPKPEKKDGVSFCAEH', 0.184),
  ('CAFTHRPCSHPRLEGQEFCIKHILEDKNAPFKQCSYISTKNGKRCPNAAPKPEKKEGVSFCAEH', -0.113),
  ('CAFTHRPCSHPRLEGQEFCIKHILEDKNAPFKQCSYISTKNGKRCPNAAPKPEKKQGVSFCAEH', -0.073),
  ('CAFTHRPCSHPRLEGQEFRIKHILEDKNAPFKQCSYISTKNGKRCPNAAPKPEKKDGVSFCAEH', -1.17),
  ('CAFTHRPCSHPRLEGQEFCIKHILEDKNAPFKQCSYISTKNGKRCPPAAPKPEKKDGVSFCAEH', -0.511),
  ('CAFTHRPCSHPRLEGQEFCIKHILEDKNAPFKQCSYISTKNGKRCPNAAPKPEKKDGVSFCEEH', -0.101),
  ('CAFTHRPCSHPRLEGQEFCIKHILEDKNAPFKQCSYIETKNGKRCPNAAPKPEKKDGVSFCAEH', -0.059),
  ('CAFTHRPCSHPRLEGQEFCIKHILEDKNAPFKQCSYISTKNGKPCPNAAPKPEKKDGVSFCAEH', -0.067),
  ('CSFTHRPCSHPRLEGQEFCIKHILEDKNAPFKQCSYISTKNGKRCPNAAPKPEKKDGVSFCAEH', -0.238),
  ('CAFTHRPCSHPRLEGQEFCIKHILEDKNAPFKQCSYISTKNGKRCPNAAPKPEKKDGPSFCAEH', -0.098),
  ('CAFTQRPCSHPRLEGQEFCIKHILEDKNAPFKQCSYISTKNGKRCPNAAPKPEKKDGVSFCAEH', 0.011),
  ('CAFTHRPCSHPRLEGQEFCIKHILEDKNAPFKQCSYISTKVGKRCPNAAPKPEKKDGVSFCAEH', -0.031),
  ('GAFTHRPCSHPRLEGQEFCIKHILEDKNAPFKQCSYISTKNGKRCPNAAPKPEKKDGVSFCAEH', -0.604),
  ('CAFTHRPCSHPRLEGQEFCIKHILEDKNAPFKQCSYISSKNGKRCPNAAPKPEKKDGVSFCAEH', -0.112),
  ('CAFTHRPCSHPRLEGQEFCIKHILEDKNAPVKQCSYISTKNGKRCPNAAPKPEKKDGVSFCAEH', -0.248),
  ('CAFTGRPCSHPRLEGQEFCIKHILEDKNAPFKQCSYISTKNGKRCPNAAPKPEKKDGVSFCAEH', -0.017),
  ('CAFTHRPCSHPRLEGQEFCIKHILEDKNAPFKQCSYISTKNGKFCPNAAPKPEKKDGVSFCAEH', -0.144),
  ('CCFTHRPCSHPRLEGQEFCIKHILEDKNAPFKQCSYISTKNGKRCPNAAPKPEKKDGVSFCAEH', -0.08),
  ('CAFTHRPCSHPRLEGQEACIKHILEDKNAPFKQCSYISTKNGKRCPNAAPKPEKKDGVSFCAEH', -0.572),
  ('CAFTHRPCSHPRLEGQEFCIKHILEDKNAPFKQCSYISTKNGKRCSNAAPKPEKKDGVSFCAEH', -0.049),
  ('CAFTHRPCSHPRLEGQEFCIKHILEDKNAPFKQCSYISTKNGKRCPNAADKPEKKDGVSFCAEH', -0.302),
  ('CAFTHRPCSHPVLEGQEFCIKHILEDKNAPFKQCSYISTKNGKRCPNAAPKPEKKDGVSFCAEH', -0.066),
  ('CAFTHRPCSHPRVEGQEFCIKHILEDKNAPFKQCSYISTKNGKRCPNAAPKPEKKDGVSFCAEH', -0.127),
  ('CAFTHRPCSHPRLEGQEFCIKHILEDKNAPFKGCSYISTKNGKRCPNAAPKPEKKDGVSFCAEH', -0.142),
  ('CAFTHRPCTHPRLEGQEFCIKHILEDKNAPFKQCSYISTKNGKRCPNAAPKPEKKDGVSFCAEH', -0.193),
  ('CAFTHIPCSHPRLEGQEFCIKHILEDKNAPFKQCSYISTKNGKRCPNAAPKPEKKDGVSFCAEH', -0.034),
  ('CAFEHRPCSHPRLEGQEFCIKHILEDKNAPFKQCSYISTKNGKRCPNAAPKPEKKDGVSFCAEH', -0.305),
  ('CAFTHRPCSHPRLEGQEFCIKHILEDKNAPAKQCSYISTKNGKRCPNAAPKPEKKDGVSFCAEH', -0.197),
  ('CAFTHRPCSHPRLEGQEFCIKHILEDKNAPFKQCSIISTKNGKRCPNAAPKPEKKDGVSFCAEH', -0.131),
  ('CAFTHRPCSHPRLEGQEFCIKHILEDKNAPFKQCSYISTKKGKRCPNAAPKPEKKDGVSFCAEH', 0.019),
  ('CAFTHRPCSHPRLEGQEFCIKHILEDKRAPFKQCSYISTKNGKRCPNAAPKPEKKDGVSFCAEH', -0.049),
  ('CAFTHRPCSHPRLEGSEFCIKHILEDKNAPFKQCSYISTKNGKRCPNAAPKPEKKDGVSFCAEH', -0.091),
  ('CAFTHRPCSHPRLEGQEFCIKHILEDKNAPFKQCSRISTKNGKRCPNAAPKPEKKDGVSFCAEH', -0.055),
  ('CAFTHRPCSYPRLEGQEFCIKHILEDKNAPFKQCSYISTKNGKRCPNAAPKPEKKDGVSFCAEH', -0.041),
  ('CAFTHRPCSHPRLEGQEFCIKHILENKNAPFKQCSYISTKNGKRCPNAAPKPEKKDGVSFCAEH', -0.081),
  ('CAFTHRPCSHPRLEGQEFCIKHILEDKNAPFKQCSYISTKNGKRCPNAAPDPEKKDGVSFCAEH', -0.05),
  ('CAFTHRPCSHPRLIGQEFCIKHILEDKNAPFKQCSYISTKNGKRCPNAAPKPEKKDGVSFCAEH', -0.219),
  ('CAFTHRPCSHPRLEGQEFCIKHILEDKNAPFKQCSYISTKNGKRCCNAAPKPEKKDGVSFCAEH', -0.065),
  ('CAFTHRPCSHPRLEGCEFCIKHILEDKNAPFKQCSYISTKNGKRCPNAAPKPEKKDGVSFCAEH', -0.198),
  ('CAFTHRPCSHPRLEGQEFCIKHILEDKNAPFKQCSYISTKNPKRCPNAAPKPEKKDGVSFCAEH', -0.1),
  ('CAFTHRPCSQPRLEGQEFCIKHILEDKNAPFKQCSYISTKNGKRCPNAAPKPEKKDGVSFCAEH', -0.078),
  ('CAFTHRPCSHKRLEGQEFCIKHILEDKNAPFKQCSYISTKNGKRCPNAAPKPEKKDGVSFCAEH', -0.067),
  ('CAFTHRPCSHPRLEGQEFCIRHILEDKNAPFKQCSYISTKNGKRCPNAAPKPEKKDGVSFCAEH', -0.058);
